Below, each entry is listed with its recorded IC50.
System: PANC-1
Assay: Antiproliferative activity against human PANC-1 cells assessed as inhibition of cell growth by MTT assay

smiles_input	experimental_target	IC50
Cc1ccccc1-c1cc(C(=O)NCc2ccc(C(=O)NO)cc2)c2nccn2c1	PANC-1	> 10 µM
O=C(NO)c1ccc(NCc2cc(-c3cccc(Cl)c3)cn3ccnc23)cc1	PANC-1	> 10 µM
Cc1ccc(-c2cc(C(=O)NCc3ccc(C(=O)NO)cc3)c3nccn3c2)cc1	PANC-1	6.15 µM
O=C(NO)c1ccc(NCc2cc(-c3cccc(Br)c3)cn3ccnc23)cc1	PANC-1	> 10 µM
Cc1cccc(-c2cc(C(=O)NCc3ccc(C(=O)NO)cc3)c3nccn3c2)c1	PANC-1	> 10 µM
O=C(NO)c1ccc(CNC(=O)c2cc(-c3ccc(F)cc3)cn3ccnc23)cc1	PANC-1	3.79 µM

====

Test system: MGC-803
Assay: Antiproliferative activity against human MGC-803 cells assessed as inhibition of cell growth by MTT assay
pIC50: −log10 of the molar value.
Below, each entry is listed with its recorded pIC50.
measure: pIC50

smiles_input	measure	observed_measurement
Cc1ccccc1-c1cc(C(=O)NCc2ccc(C(=O)NO)cc2)c2nccn2c1	pIC50	5.88
O=C(NO)c1ccc(NCc2cc(-c3cccc(Cl)c3)cn3ccnc23)cc1	pIC50	5.42
O=C(NO)c1ccc(NCc2cc(-c3cccc(Br)c3)cn3ccnc23)cc1	pIC50	5.29
Cc1ccc(-c2cc(C(=O)NCc3ccc(C(=O)NO)cc3)c3nccn3c2)cc1	pIC50	5.93
Cc1cccc(-c2cc(C(=O)NCc3ccc(C(=O)NO)cc3)c3nccn3c2)c1	pIC50	5.46
O=C(NO)c1ccc(CNC(=O)c2cc(-c3ccc(F)cc3)cn3ccnc23)cc1	pIC50	6.02

====

Assay: AUClast in male Sprague-Dawley rat at 7 mg/kg,iv measured upto 8 hrs by UPLC-MS/MS analysis
Assay type: ADME, organism-based
Details: in vivo
measure: AUC(0-t) at 8 h (ng·h/mL)

smiles_input	measure	observed_measurement
O=C(NO)c1ccc(CNC(=O)c2cc(-c3ccc(F)cc3)cn3ccnc23)cc1	AUC(0-t) at 8 h	740

====

System: SGC-7901
Test: Antiproliferative activity against human SGC-7901 cells assessed as inhibition of cell growth by MTT assay

smiles_input	IC50, µM
O=C(NO)c1ccc(CNC(=O)c2cc(-c3ccc(F)cc3)cn3ccnc23)cc1	8.34

====

Assay: Half life in male Sprague-Dawley rat at 7 mg/kg,iv measured upto 8 hrs by UPLC-MS/MS analysis
Format: ADME, organism-based
Settings: in vivo

smiles_input	half-life
O=C(NO)c1ccc(CNC(=O)c2cc(-c3ccc(F)cc3)cn3ccnc23)cc1	2.19 h

====

Test system: TE-1
Assay: Antiproliferative activity against human TE-1 cells assessed as inhibition of cell growth by MTT assay
measure: IC50 (µM)

compound	qualifier_symbol	observed_measurement
Cc1ccccc1-c1cc(C(=O)NCc2ccc(C(=O)NO)cc2)c2nccn2c1	=	2.56
O=C(NO)c1ccc(NCc2cc(-c3cccc(Cl)c3)cn3ccnc23)cc1	>	10
Cc1cccc(-c2cc(C(=O)NCc3ccc(C(=O)NO)cc3)c3nccn3c2)c1	=	2.77
Cc1ccc(-c2cc(C(=O)NCc3ccc(C(=O)NO)cc3)c3nccn3c2)cc1	=	5.54
O=C(NO)c1ccc(CNC(=O)c2cc(-c3ccc(F)cc3)cn3ccnc23)cc1	=	4.5
O=C(NO)c1ccc(NCc2cc(-c3cccc(Br)c3)cn3ccnc23)cc1	=	6.23
O=C(CCCCCCC(=O)Nc1ccccc1)NO [VORINOSTAT]	=	2.25

====

Test system: HGC-27
Assay: Antiproliferative activity against human HGC-27 cells assessed as inhibition of cell growth by MTT assay
measure: IC50 (nM)

smiles_input	measure	observed_measurement
O=C(NO)c1ccc(CNC(=O)c2cc(-c3ccc(F)cc3)cn3ccnc23)cc1	IC50	2800

====

Experiment: Cmax in male Sprague-Dawley rat at 7 mg/kg,po measured upto 8 hrs by UPLC-MS/MS analysis
Assay type: ADME, organism-based
Settings: in vivo
measure: Cmax (ng/mL)

smiles_input	unit_label	observed_measurement
O=C(NO)c1ccc(CNC(=O)c2cc(-c3ccc(F)cc3)cn3ccnc23)cc1	ng/mL	27.5

The values you see were collected from ChEMBL document CHEMBL5550215.
